Origin of values: paper PMC8668966

TESTED_ON: cytochrome bo3 (Escherichia coli)
Construct: made in house; host or cells: E. coli strain GO195 with pIRHisA
Sequence (P0ABJ3 whole entry): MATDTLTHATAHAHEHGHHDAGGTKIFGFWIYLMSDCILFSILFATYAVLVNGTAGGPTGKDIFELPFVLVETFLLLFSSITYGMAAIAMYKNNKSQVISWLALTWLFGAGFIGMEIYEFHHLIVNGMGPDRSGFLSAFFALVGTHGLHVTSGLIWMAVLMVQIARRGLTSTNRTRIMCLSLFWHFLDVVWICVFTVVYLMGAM
Sequence (P0ABJ1 25-315, further chain): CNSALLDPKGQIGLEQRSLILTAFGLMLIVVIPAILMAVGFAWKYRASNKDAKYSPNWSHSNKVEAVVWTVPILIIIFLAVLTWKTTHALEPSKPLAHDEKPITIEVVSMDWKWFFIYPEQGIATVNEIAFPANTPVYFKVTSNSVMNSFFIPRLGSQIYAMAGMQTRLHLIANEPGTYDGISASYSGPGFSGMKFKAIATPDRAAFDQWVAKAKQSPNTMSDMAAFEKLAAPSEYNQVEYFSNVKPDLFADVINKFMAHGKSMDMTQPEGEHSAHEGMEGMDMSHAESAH
Sequence (P0ABJ6 whole entry, further chain): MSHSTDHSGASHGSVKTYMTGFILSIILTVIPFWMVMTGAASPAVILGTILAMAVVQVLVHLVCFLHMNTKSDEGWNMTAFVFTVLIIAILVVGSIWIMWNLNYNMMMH
Sequence (P0ABI8 whole entry): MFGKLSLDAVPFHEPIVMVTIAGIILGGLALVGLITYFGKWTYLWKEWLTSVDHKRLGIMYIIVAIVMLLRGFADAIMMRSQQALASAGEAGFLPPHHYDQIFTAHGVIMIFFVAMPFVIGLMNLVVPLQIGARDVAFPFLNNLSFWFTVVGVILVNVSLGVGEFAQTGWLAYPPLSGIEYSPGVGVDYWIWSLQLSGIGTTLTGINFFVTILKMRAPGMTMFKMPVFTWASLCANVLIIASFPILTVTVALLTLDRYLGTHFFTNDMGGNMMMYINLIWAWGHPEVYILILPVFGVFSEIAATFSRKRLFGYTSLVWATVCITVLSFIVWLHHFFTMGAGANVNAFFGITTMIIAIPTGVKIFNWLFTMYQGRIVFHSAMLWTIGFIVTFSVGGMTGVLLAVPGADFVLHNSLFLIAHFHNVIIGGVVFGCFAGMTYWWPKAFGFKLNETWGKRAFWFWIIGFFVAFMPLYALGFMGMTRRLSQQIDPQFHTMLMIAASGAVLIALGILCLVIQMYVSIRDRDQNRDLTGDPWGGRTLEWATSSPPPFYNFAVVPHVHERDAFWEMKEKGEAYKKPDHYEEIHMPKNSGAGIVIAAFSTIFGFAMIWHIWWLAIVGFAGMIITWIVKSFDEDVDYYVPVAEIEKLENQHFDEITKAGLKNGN
METHOD: Oxygen reductase activity assay (Clark-type electrode) with purified cytochrome bo3
Assay type: biochemical, E. coli
TEST_PARAMETERS: compound 250 µM, 200 µM ubiquinone-1, 5 mM dithiothreitol, 30 nM enzyme, RT, 100% = DMSO; mean ± S.E.M. (n=3); read-out: Rest activity in % of control activity bo3
REPORTED_PROPERTY: remaining activity at 250 µM (%)
Write it as a number; the unit % goes unstated.

1. CCCCc1c(C)[nH]c2ccccc2c1=O ... 69.7
2. CCCCCCCCCCCc1c(CC)c(=O)c2ccccc2n1O ... 0.445
3. CCCCCCCCc1c(C)[nH]c2ccccc2c1=O ... 94.6
4. CCCCCCCCCCc1c(C)c(=O)c2ccccc2n1O ... 0.626

# next compound below
Ask: Return reported remaining activity at 250 µM; argument: Cc1cc(O)c2ccccc2n1 [Compound 2-MQ, 2-methyl-4-quinolinol, reference compound]
Reply: 64.2
